B1: tRNA (parent)
chain: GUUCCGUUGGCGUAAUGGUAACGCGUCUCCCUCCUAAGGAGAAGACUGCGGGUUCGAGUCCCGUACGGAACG

Variants of: B1
Experiment: yeast fitness relative to wild type (ratio to wild type); higher = fitter; tRNA-Arg(CCU), competitive growth, 37 C, YPD
Variants at the floor of the assay were thinned out.
reported-metric: yeast fitness

mutation-label: G9C C46U G63A
recorded-result: 0.69
//
mutation-label: U16C G52A G56A
recorded-result: 0.69
//
mutation-label: G12A U19C A21C
recorded-result: 0.685
//
mutation-label: G48C A57G
recorded-result: 0.705
//
mutation-label: U26A C49U G56A
recorded-result: 0.706

Source listed as the RNAGym collection of RNA variant scans (doi:10.1126/science.aae0568).
